Record form. Attribute: melting point. Fill in for each entry.

Example results:
compound | test value
CCOc1cc(Oc2ccc(S(C)(=O)=O)nc2)cc2cc(C3=NCC(CC(N)=O)S3)[nH]c12 (stereo not given) | 195 to 196 °C
COc1ccc(-c2cc(-c3ccccc3)nc(C)c2C(=O)O)cc1OC | 208 °C
O=c1c2ccccc2ccn2c(SC(F)(F)F)ccc12 | 137 to 138 °C
N#Cc1c(-c2ccc(Cl)cc2)[nH]c(C(F)(F)F)c1Sc1ccc(Cl)c(Cl)c1 | 94 to 97 °C

Attention now turns to another entry.
stdin: Given COc1cn(-c2ccc(-c3ccccn3)cc2F)nc(-c2ccnn2-c2ccccc2)c1=O , state its recorded melting point.
stdout: 206 to 208 °C

* * *

Record form. Attribute: melting point. Fill in for each entry.

compound | test value
COCSc1ccc2c(c1)CC[C@@H]1[C@@H]2CC[C@]2(C)C(=O)CC[C@@H]12 | 55 °C
ClCc1c(Cl)nnc(Cl)c1Cl | 102 to 104 °C
CN1Cc2ccccc2C(=O)c2cc(CC(=O)O)cc(Br)c21 | 164 to 167 °C
N#Cc1ncn2c1[C@@H]1CCN1C(=O)c1c-2cccc1C(F)(F)F | 115 to 119 °C
Nc1ccccc1C(=O)Nc1cccnc1Cl | 172 to 175 °C

Below are 3 compounds. Give each one its melting point.
1. O=C(c1cc(F)cc(F)c1)c1cc(F)cc(F)c1
2. COC(=O)CCCc1cc2nc(Cl)ccc2n1S(=O)(=O)c1ccccc1
3. CN(Cc1cc2c(=O)c(C(=O)NCc3ccc(Cl)cc3)cn(C)c2o1)CC(O)c1ccco1 (centres undefined)

stdout:
79 °C
85 to 90 °C
94 to 101 °C

* * *

Record form. Attribute: melting point. Fill in for each entry.
Give bare numbers, in °C.

Example results:
compound | test value
COC(=O)c1cccc(NC(=O)NCC(=O)O)c1 | 215
COc1ccc2[nH]cc(Cc3cccnc3)c2c1 | 112
CNCc1ccc(C2=NCCN2C(=O)OC(C)(C)C)cc1 | 65
CNC(=O)N(CCN1CCC(Nc2nc3ccccc3n2Cc2ccc(F)cc2)CC1)c1nccs1 | 172

Attention now turns to another entry.
stdin: Given CCOC(=O)COc1ccc(OCc2ccccc2)cc1C(Nc1ccc(C(N)=S)cc1)C(=O)OCC (racemic) , state its recorded melting point.
stdout: 166

* * *

Record form. Attribute: melting point. Fill in for each entry.

molecule | melting point
CC(OCn1cc(Cl)cnc1=O)c1ccccc1 (stereo not given) | 139 °C
CCCn1c(=O)[nH]c2cnc(-c3ccccc3)nc21 | 263 to 264 °C
O=C(C1CC1)C(C(O)C(Cl)(Cl)Cl)n1cncn1 (stereo not given) | 173 to 175 °C
ClCCN(CCCl)CCCCOc1cccc(Nc2c3ccccc3nc3c(OCCN(CCCl)CCCl)cccc23)c1 | 95 to 96 °C
Clc1nc(NCc2ccc(-c3ccccn3)cc2)c2[nH]cnc2n1 | > 250 °C
Nc1nc2[nH]c(CCCc3cc(C(=O)O)cs3)cc2c(=O)[nH]1 | 181 to 182 °C
O=C(O)COc1cccc2c(CNC(=O)COc3ccccc3)coc12 | 156 to 157 °C
COc1ccnc(N2CCN(C(=S)c3ccccc3)CC2)n1 | 125 to 129 °C
O=c1oc(-c2ccccc2)cc(O)c1C(Sc1ccccc1)C1CCCCC1 (stereo not given) | 87 to 90 °C

Attention now turns to another entry.
stdin: Given CCC(OC)c1oc(C)cc(=O)c1OCc1ccccc1 (stereo not given) , state its recorded melting point.
stdout: 63 to 65 °C

* * *

measured quantity: melting point

Example results:
molecule | test value
CC(C)(C)c1ccc(-c2cc(=O)cc(N3CCOCC3)o2)cc1 | 156 °C
CC1(C)CC1C(=O)Nc1ccc(C2=NNC(=O)CC2)cc1 (stereo not given) | 213 to 214 °C

Below are 3 molecules. Give each one its melting point.
1. CCC(=O)C1=C(O)CC(c2ccc3ccccc3c2)CC1=O (stereo not given)
2. c1cc2c3c(c1)nc(SCc1ccncc1)n3CCC2
3. Nc1ccc2c(=O)n3c(nc2c1)C(=Cc1ccccc1Cl)CC3

stdout:
["125 °C", "105 to 107 °C", "275 to 280 °C"]

Below are 5 molecules. Give each one its melting point.
1. CSc1c(OCC(=O)O)ccc2c1[nH]c1ccccc12
2. O=C(O)c1cc(Br)ccc1OCC(F)(F)F
3. Oc1ccccc1CNCCCCCCCCCCCCNCc1ccccc1O
4. COc1cc(C(=O)OC2CC3C(=O)NC4(C(=O)NS(=O)(=O)C5CC5)CC4C=CCCCCCC(NC(=O)OC(C)(C)C)C(=O)N3C2)n(OC)n1 (stereo not given)
5. CCOC(=O)c1cc(-c2ncc(Cl)cc2F)nn1C

stdout:
1. 179 to 180 °C
2. 126 to 128 °C
3. 72 to 73 °C
4. 149 to 151 °C
5. 117 to 118 °C

* * *

Record form. Attribute: melting point. Fill in for each entry.

compound | melting point
CCc1[nH]n(C2CCCC2)c2nc(Cc3cccc(O)c3)nc(=O)c1-2 | 195 to 197 °C
COc1cc2c(cc1OC)N(C)C(=O)CN=C2c1cccc(C(C)=O)c1 | 148 to 150 °C
CCOC(=O)c1cc(=O)c2c(OCC(O)COc3cccc(O)c3C(=O)C=CN(C)C)cccc2o1 (configuration not stated) | 159 to 165 °C
CNC(=O)c1ccc(N2CCN(Cc3cc4c(c(OC)c3)OC(C)C(=O)N4)CC2)c(Cl)c1 (configuration not stated) | 200 to 203 °C

Below are 2 compounds. Give each one its melting point.
1. CCOC(=O)c1cnc(-c2ccccc2OCC)[nH]c1=O
2. COc1cncnc1-c1ssc(=S)c1C

stdout:
1: 144 to 149 °C; 2: 136 °C

Below are 3 compounds. Give each one its melting point.
1. c1ccc2nn(-c3cscn3)cc2c1
2. COC(=O)c1cc2c(nc1C)C(CBr)CCCC2 (configuration not stated)
3. Nc1c(Cl)cc(C(O)CNCCCCCCOCCCCCCc2ccc3ccccc3n2)cc1Cl (configuration not stated)

stdout:
1. 146 to 147 °C
2. 66 to 67 °C
3. 62.3 to 64.7 °C

Below are 3 compounds. Give each one its melting point.
1. O=c1cnc(-c2ccc([N+](=O)[O-])cc2)c[nH]1
2. COP(=S)(OC)Oc1nsc(-c2ccccc2)c1C#N
3. C[C@@H](Nc1ncnc2cc(OC3CCC3)c([N+](=O)[O-])cc12)c1ccccc1

stdout:
["336 to 338 °C", "40 °C", "108 to 110 °C"]

Below are 6 compounds. Give each one its melting point.
1. CC1NC(=O)NN=C1c1ccc(NCCCN)cc1 (configuration not stated)
2. O=C(Nc1ccc(OC(F)(F)F)cc1)NC1CCN(C(=O)c2cc(O)c(O)c(O)c2)CC1
3. CCCNc1nc(N)n[nH]1
4. COC(=O)c1sc2cccc(OC)c2c1N(C)C
5. Cc1ccc(C2COc3c(C)c(C)c(N)c(C)c32)cc1 (configuration not stated)
6. O=C(NCCO)/C(=C/c1ccc(OC2CC2)cc1)NC(=O)c1ccc(OCCC2CC2)cc1

stdout:
["178 to 179 °C", "168 to 175 °C", "148 to 149 °C", "69 to 73 °C", "121 to 122 °C", "132 to 134 °C"]

Below are 4 compounds. Give each one its melting point.
1. COc1cnc(CS(C)(=O)=O)nc1O
2. O=c1[nH]c2ccc(C3CCNCC3)cc2[nH]1
3. CCOC(=O)c1nn(-c2cccc(C)c2)c(=O)c2c(N)scc12
4. COc1cc(OC)nc(Sc2sccc2NC(=O)C(F)(F)F)n1

stdout:
["230 °C", "214 to 215 °C", "190 to 191 °C", "88 to 90 °C"]

* * *

Record form. Attribute: melting point. Fill in for each entry.

compound | melting point
CN(NC(=O)OC(C)(C)C)C(=O)C(C)(C)ON1C(=O)c2ccccc2C1=O | 140 to 145 °C
Cc1cncc(-c2nc(C(F)(F)F)cn2-c2ccc(S(N)(=O)=O)cc2)c1 | 242 to 243 °C

Below are 6 compounds. Give each one its melting point.
1. CC(c1cccc(-c2ncc(OCCCN(C)C)cn2)c1)n1nc(-c2cccc(C#N)c2)ccc1=O (centres undefined)
2. O=C1c2ccccc2C(=O)N1OCCCN1CCN(c2nsc3ccccc23)CC1
3. COC(=O)CC1(C)CCc2cc(C#N)ccc2C1=O (centres undefined)
4. CC(=O)Nc1cccc(-c2ccc3nc(-c4cccnc4N)n(-c4ccc(CNC(=O)c5cccc(F)c5)cc4)c3n2)c1
5. COc1ccc(-c2nc(NC(=N)N3CCN(C)CC3)sc2-c2ccc(OC)cc2)cc1
6. CCOc1ncc(S(=O)(=O)N2CCN(CC)CC2)cc1-c1nc2c(CC)n(CCOC)nc2c(=O)[nH]1

stdout:
1. 105 to 107 °C
2. 143 to 144 °C
3. 117 °C
4. 174 to 187 °C
5. 161 to 162 °C
6. 158 to 160 °C

stdin: Given O=C1CCC(N2Cc3c(OCc4ccc(CCN5CCOCC5)cc4)cccc3C2=O)C(=O)N1 (centres undefined) , state its recorded melting point.
stdout: 230 to 232 °C
